- Target or test system: Tyrosine-protein phosphatase non-receptor type 1 (Homo sapiens, UniProt P18031)
- Sequence (P18031 whole entry): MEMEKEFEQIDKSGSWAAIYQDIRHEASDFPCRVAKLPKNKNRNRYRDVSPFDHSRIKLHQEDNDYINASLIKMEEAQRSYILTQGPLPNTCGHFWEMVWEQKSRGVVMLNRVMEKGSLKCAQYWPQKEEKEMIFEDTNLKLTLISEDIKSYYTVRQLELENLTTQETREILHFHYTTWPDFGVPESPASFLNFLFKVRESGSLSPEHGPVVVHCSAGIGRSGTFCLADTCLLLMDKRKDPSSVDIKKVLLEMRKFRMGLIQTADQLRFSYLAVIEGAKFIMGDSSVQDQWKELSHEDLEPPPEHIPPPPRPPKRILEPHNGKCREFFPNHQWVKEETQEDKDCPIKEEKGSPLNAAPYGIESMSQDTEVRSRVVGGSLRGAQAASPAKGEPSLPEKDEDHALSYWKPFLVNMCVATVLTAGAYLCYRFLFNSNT
- Assay remarks: Inhibition of recombinant PTP1B (unknown origin) using p-NPP as substrate after 30 mins by UV-spectroscopic analysis
Endpoint name: IC50

Look over these answered cases.
[[record]]
molecule = "COc1cc(C(=O)OCC(COC(=O)c2cc(Br)c(OC)c(OC)c2)OC(=O)c2cc(Br)c(OC)c(OC)c2)cc(Br)c1OC"
target_or_test_system = "Tyrosine-protein phosphatase non-receptor type 1 (Homo sapiens, UniProt P18031)"
test_result = "> 20000 nM"

[[record]]
molecule = "O=C(OCC(COC(=O)c1cc(O)c(O)c(Br)c1)OC(=O)c1cc(O)c(O)c(Br)c1)c1cc(O)c(O)c(Br)c1"
target_or_test_system = "Tyrosine-protein phosphatase non-receptor type 1 (Homo sapiens, UniProt P18031)"
test_result = "240 nM"


Recorded IC50 of `COc1cc(C(=O)OCCOC(=O)c2cc(Br)c(OC)c(OC)c2)cc(Br)c1OC` , please. > 20000 nM

Recorded IC50 of COc1cc(C(=O)OC[C@H]2OC(OC(=O)c3cc(Br)c(O)c(OC)c3)[C@H](OC(=O)c3cc(Br)c(O)c(OC)c3)[C@@H]2OC(=O)c2cc(Br)c(O)c(OC)c2)cc(Br)c1O (stereo partly specified) , please. 1500 nM

Recorded IC50 of COc1cc(C(=O)OC2OC[C@@H](OC(=O)c3cc(Br)c(OC)c(OC)c3)[C@H](OC(=O)c3cc(Br)c(OC)c(OC)c3)[C@H]2OC(=O)c2cc(Br)c(OC)c(OC)c2)cc(Br)c1OC (single isomer, unassigned) , please. 1110 nM

Recorded IC50 of O=C(OC[C@H]1OC(OC(=O)c2cc(O)c(O)c(Br)c2)[C@H](OC(=O)c2cc(O)c(O)c(Br)c2)[C@@H]1OC(=O)c1cc(O)c(O)c(Br)c1)c1cc(O)c(O)c(Br)c1 (stereo partly specified) , please. 190 nM
